Cited source for all entries: ChEMBL document CHEMBL1149716

Protocol Summary: Insulinotropic activity in rat RIN5F cells assessed as glucose dependent insulin secretion per ug of total protein at 1 uM
Format: functional
Label 1 when Activity is at or above 20 pg/µg/h; anything below gets -1.

Example results:
- Test Smiles: "Clc1cnc2scc(C3=NCCN3)c2c1"
  Label Value: -1
- Test Smiles: "Clc1cnc2sc(C3CCCCC3)c(C3=NCCN3)c2c1"
  Label Value: -1
- Test Smiles: "Clc1cnc2sc(Cc3ccccc3)c(C3=NCCN3)c2c1"
  Label Value: -1
- Test Smiles: "Cc1sc2ncc(Cl)cc2c1C1=NCCN1"
  Label Value: 1
- Test Smiles: "Cc1[nH]c2ncc(Cl)cc2c1C1=NCCN1"
  Label Value: 1

Enquiry: # check: Activity of "c1cnc2scc(C3=NCCN3)c2c1" is greater than or equal to 20 pg/µg/h
Return: -1

Enquiry: For "CCc1sc2ncccc2c1C1=NCCN1" then?
Return: -1

----------
Exercise: for every item that follows, state its recorded Activity.
Protocol Summary: Insulinotropic activity in rat RIN5F cells assessed as glucose dependent insulin secretion per ug of total protein at 1 uM
Format: functional

// below: answered compounds
- Test Smiles: "c1ccc(Cc2sc3ncccc3c2C2=NCCN2)cc1"
  Activity: "18.8 pg/µg/h"
- Test Smiles: "c1cnc2[nH]cc(C3=NCCN3)c2c1"
  Activity: "14.1 pg/µg/h"
- Test Smiles: "Clc1cnc2[nH]cc(C3=NCCN3)c2c1"
  Activity: "15.2 pg/µg/h"
- Test Smiles: "Clc1cnc2sc(-c3ccccc3)c(C3=NCCN3)c2c1"
  Activity: "25.4 pg/µg/h"
- Test Smiles: "Clc1cnc2[nH]c(-c3ccccc3)c(C3=NCCN3)c2c1"
  Activity: "25.5 pg/µg/h"

Could I get Activity for every one of these entries?
1. CCc1[nH]c2ncccc2c1C1=NCCN1
2. CCc1sc2ncc(Cl)cc2c1C1=NCCN1
3. Clc1cnc2[nH]c(C3CCCCC3)c(C3=NCCN3)c2c1
4. Cc1[nH]c2ccc(Cl)cc2c1C1=NCCN1
5. CCc1[nH]c2ncc(Cl)cc2c1C1=NCCN1
6. c1cnc2sc(C3CCCCC3)c(C3=NCCN3)c2c1
7. c1cnc2[nH]c(C3CCCCC3)c(C3=NCCN3)c2c1

Return:
1. 16.4 pg/µg/h
2. 26.5 pg/µg/h
3. 15 pg/µg/h
4. 22.4 pg/µg/h
5. 26.1 pg/µg/h
6. 14.7 pg/µg/h
7. 14.3 pg/µg/h

----------
Assign Activity to each entry below.
Protocol Summary: Insulinotropic activity in rat RIN5F cells assessed as glucose dependent insulin secretion per ug of total protein at 10 uM
Assay type: functional
Answers are plain numbers, in pg/h.

- Test Smiles: "Clc1cnc2sc(-c3ccccc3)c(C3=NCCN3)c2c1"
  Scale Unit: "pg/h"
  Activity: 39
- Test Smiles: "Clc1cnc2sc(Cc3ccccc3)c(C3=NCCN3)c2c1"
  Scale Unit: "pg/h"
  Activity: 31.9
- Test Smiles: "c1cnc2sc(C3CCCCC3)c(C3=NCCN3)c2c1"
  Scale Unit: "pg/h"
  Activity: 28.1

Would you mind giving Activity for every compound in the list below?
1. Clc1cnc2[nH]c(C3CCCCC3)c(C3=NCCN3)c2c1
2. CCc1sc2ncccc2c1C1=NCCN1

Return:
1. 28.9
2. 29.1

Need Activity for each of these compounds.
1. Cc1sc2ncccc2c1C1=NCCN1
2. c1cnc2[nH]cc(C3=NCCN3)c2c1
3. Cc1sc2ncc(Cl)cc2c1C1=NCCN1

Return:
1. 31.8
2. 28
3. 41.5

Dear reader, for each entry below, please note its Activity.
1. Clc1cnc2[nH]c(-c3ccccc3)c(C3=NCCN3)c2c1
2. c1cnc2scc(C3=NCCN3)c2c1
3. Cc1[nH]c2ccc(Cl)cc2c1C1=NCCN1
4. Clc1cnc2[nH]cc(C3=NCCN3)c2c1
5. c1ccc(Cc2[nH]c3ncccc3c2C2=NCCN2)cc1

Return:
[39.2, 28.2, 36.5, 29.6, 32.6]

----------
Protocol Summary: Insulinotropic activity in rat RIN5F cells assessed as glucose dependent insulin secretion per ug of total protein at 10 uM
Format: functional
Test Readout: Activity (pg/h)
Numbers only, in pg/h.

- Molecule: "c1ccc(-c2sc3ncccc3c2C2=NCCN2)cc1"
  Activity (pg/h): 31.9

Below are some molecules; for each one, tell me its Activity.
1. Clc1cnc2scc(C3=NCCN3)c2c1
2. Clc1cnc2[nH]c(Cc3ccccc3)c(C3=NCCN3)c2c1
3. c1ccc(-c2[nH]c3ncccc3c2C2=NCCN2)cc1
4. Clc1cnc2sc(C3CCCCC3)c(C3=NCCN3)c2c1
5. Cc1[nH]c2ncccc2c1C1=NCCN1

Return:
29
31.9
32.5
28.7
32.4

Okay, here is my list. What is Activity for each of these?
1. c1ccc(Cc2sc3ncccc3c2C2=NCCN2)cc1
2. c1cnc2[nH]c(C3CCCCC3)c(C3=NCCN3)c2c1
3. CCc1[nH]c2ncc(Cl)cc2c1C1=NCCN1

Return:
31.6
28
39.9

Hi there! I need Activity for each item below, if you can.
1. CCc1sc2ncc(Cl)cc2c1C1=NCCN1
2. CCCCNC(=O)NS(=O)(=O)c1ccc(C)cc1 [TOLBUTAMIDE]

Return:
[39.8, 35.2]

Take each entry in turn and give its Activity.
1. CCc1[nH]c2ncccc2c1C1=NCCN1
2. Cc1[nH]c2ncc(Cl)cc2c1C1=NCCN1

Return:
29.1
41.7

----------
Protocol Summary: Insulinotropic activity in rat RIN5F cells assessed as glucose dependent insulin secretion per ug of total protein at 0.1 uM
Format: functional
Test Readout: Activity (pg/h)
One number for each entry, in pg/h.

Answered examples (8):
- Test Smiles: "CCc1[nH]c2ncc(Cl)cc2c1C1=NCCN1"
  Scale Unit: "pg/h"
  Activity: 18.9
- Test Smiles: "Cc1[nH]c2ncc(Cl)cc2c1C1=NCCN1"
  Scale Unit: "pg/h"
  Activity: 19.3
- Test Smiles: "c1ccc(Cc2[nH]c3ncccc3c2C2=NCCN2)cc1"
  Scale Unit: "pg/h"
  Activity: 14.8
- Test Smiles: "Clc1cnc2[nH]c(-c3ccccc3)c(C3=NCCN3)c2c1"
  Scale Unit: "pg/h"
  Activity: 18.2
- Test Smiles: "Clc1cnc2[nH]cc(C3=NCCN3)c2c1"
  Scale Unit: "pg/h"
  Activity: 12.4
- Test Smiles: "Cc1[nH]c2ncccc2c1C1=NCCN1"
  Scale Unit: "pg/h"
  Activity: 14.9
- Test Smiles: "c1cnc2[nH]c(C3CCCCC3)c(C3=NCCN3)c2c1"
  Scale Unit: "pg/h"
  Activity: 12.4
- Test Smiles: "Clc1cnc2sc(-c3ccccc3)c(C3=NCCN3)c2c1"
  Scale Unit: "pg/h"
  Activity: 18

List reported Activity for each of these compounds:
1. c1ccc(-c2sc3ncccc3c2C2=NCCN2)cc1
2. c1cnc2sc(C3CCCCC3)c(C3=NCCN3)c2c1
3. c1ccc(Cc2sc3ncccc3c2C2=NCCN2)cc1
4. Cc1[nH]c2ccc(Cl)cc2c1C1=NCCN1
5. Cc1sc2ncc(Cl)cc2c1C1=NCCN1
6. Clc1cnc2sc(Cc3ccccc3)c(C3=NCCN3)c2c1
7. Clc1cnc2[nH]c(Cc3ccccc3)c(C3=NCCN3)c2c1

Return:
14.7
12.6
14.4
16.3
19.2
13.9
14.4

Record Activity for all entries; do not skip any.
1. Cc1sc2ncccc2c1C1=NCCN1
2. Clc1cnc2sc(C3CCCCC3)c(C3=NCCN3)c2c1
3. CCc1sc2ncc(Cl)cc2c1C1=NCCN1

Return:
14.5
12.9
18.5

----------
Protocol Summary: Insulinotropic activity in rat RIN5F cells assessed as glucose dependent insulin secretion per ug of total protein at 1 uM
Type: functional
Test Readout: Activity (pg/µg/h)
One number for each entry, in pg/µg/h.

// below: answered compounds
- Test Smiles: "c1ccc(-c2[nH]c3ncccc3c2C2=NCCN2)cc1"
  Test Readout: "Activity"
  Test Value: 18.1
- Test Smiles: "Clc1cnc2[nH]c(Cc3ccccc3)c(C3=NCCN3)c2c1"
  Test Readout: "Activity"
  Test Value: 18.3

Required: Activity, one value per compound below.
1. Cc1sc2ncccc2c1C1=NCCN1
2. c1ccc(-c2sc3ncccc3c2C2=NCCN2)cc1
3. c1ccc(Cc2[nH]c3ncccc3c2C2=NCCN2)cc1
4. Cc1[nH]c2ncccc2c1C1=NCCN1

Return:
18.9
18
18.2
18
